Read-out: Matrix Metallopeptidase 9 (MMP9), MMP9 (gene 4318)
Protocol: BSK_KF3CT_MMP9: BioMAP Diversity Plus: KF3CT Assay for Matrix Metallopeptidase 9 (MMP9) Biomarker Activity (AID 2283074)
Measurement parameters: primary human keratinocytes with fibroblasts; actives raise or lower the signal
Active and inactive are the calls of the source. The calls were made as follows: active = hit-call score of the fitted dose curve at least 0.9, where 1 is the maximum; inactive = score below 0.9.
Give your call using only these classes: label 1 (active), label 0 (inactive)

Some solved cases for reference:
# Molecule, Label class
records = [
    ("CCOC(=O)NCCOc1ccc(Oc2ccccc2)cc1", "label 1"),
    ("CCN(CC)C(=O)c1cccc(C)c1", "label 0"),
    ("C#CCOC(=O)[C@@H](C)Oc1ccc(Oc2ncc(Cl)cc2F)cc1", "label 0"),
    ("CC(C)(c1ccc(O)cc1)c1ccc(O)cc1", "label 0"),
    ("CCCCC(CC)COC(=O)c1ccccc1C(=O)O (configuration not stated)", "label 0"),
    ("COC(=O)c1cccc(C)c1S(=O)(=O)NC(=O)Nc1nc(OCC(F)(F)F)nc(N(C)C)n1", "label 0"),
    ("CCOC(=O)COc1cc(-n2ncc(C(F)(F)F)c(C)c2=O)c(F)cc1Cl", "label 0"),
    ("CC(C)(C)[C@@H](O)[C@@H](Cc1ccc(Cl)cc1)n1cncn1", "label 0"),
    ("COC(=O)CSc1cc(N=c2sc(=O)n3n2CCCC3)c(F)cc1Cl", "label 0"),
    ("CCCCCOC(=O)COc1cc(N2C(=O)C3=C(CCCC3)C2=O)c(F)cc1Cl", "label 1"),
]

## Input # fetch the recorded call for `COC(=O)c1ccccc1C(=O)O` here
## Output label 0

## Input # fetch the recorded call for `CCCN(CCC)C(=O)SCC` here
## Output label 0
